assay: Cell Viability - LYMP1-003 - Assay at 24 hr (AID 963); details: LYMP1-003 lymphoblastoid cell viability; series mostly up to 92.2 µM
The source made the active and inactive calls. Calls follow the shape of the dose curve; as a rule, active = well fitted cell-killing curve with a large enough effect; inconclusive = small, poorly fitted or top-dose-only effect; inactive = flat fitted curve, though single readings scatter.
Use one of these outcomes when replying: 1 = active, -1 = inactive

Solved entries (count: 2):
compound | category
C[C@H]1CC[C@@H]2[C@@H](C)[C@H]3[C@H](C[C@H]4[C@@H]5CC=C6CC(O[C@@H]7O[C@H](CO)[C@H](O)[C@H](O[C@@H]8O[C@H](CO)[C@@H](O)[C@H](O)[C@H]8O)[C@H]7O[C@H]7O[C@@H](C)[C@H](O)[C@@H](O)[C@H]7O)CC[C@]6(C)[C@H]5CC[C@]34C)N2C1 (some centres undefined) | 1
[O]=[Cd] | -1

Which outcome was entered for the compound ClCC1CO1 (centres undefined) in this test?
-1

Which outcome was entered for the compound O=C1C=CC(=O)C=C1 in this test?
-1

Which outcome was entered for the compound ClC(Cl)(Cl)Cl in this test?
-1

Which outcome was entered for the compound CC(C)Nc1ccc(Nc2ccccc2)cc1 in this test?
1

Which outcome was entered for the compound COC1=CC(=O)O[C@@H](/C=C/c2ccccc2)C1 in this test?
-1

* * *

test: S16 Schwann cell PMP22 intronic element beta-lactamase assay (AID 624044); settings: S16 rat Schwann cells, PMP22 element beta-lactamase FRET, 24 h; series mostly up to 38.3 µM;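 also: 0% = DMSO and -100% = potassium clavulanate positive control; nearly all actives have a fitted effect of over 15% in size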
Records with an inconclusive call do not appear. Calls of active or inactive are those of the source. Calls come from the whole dose curve.
Use one of these outcomes when replying: Y = active, N = inactive

Solved entries (count: 5):
compound | category
N#CN | N
O=C(CCl)c1ccc(Oc2ccc(C(=O)CCl)cc2)cc1 | N
CNC(C)C(O)c1ccc(O)cc1 (stereo not given) | N
Clc1ccc(Cl)cc1 | N
c1ccc2cc(CC3=NCCN3)ccc2c1 | N

Which outcome was entered for the compound ClCC1CO1 (stereo not given) in this test?
N

Which outcome was entered for the compound CCC1(c2ccccc2)C(=O)NC(=O)N(C(=O)c2ccccc2)C1=O (stereo not given) in this test?
N

Which outcome was entered for the compound CC12NC(Cc3ccccc31)c1ccccc12 (stereo not given) in this test?
N

Which outcome was entered for the compound C[C@H]1CCC[C@H](O)CCCCCc2cc(O)cc(O)c2C(=O)O1 in this test?
N

* * *

tested on: 3D7; assay: qHTS profiling for inhibitors of Plasmodium falciparum proliferation (AID 504749); also: nearly all actives have a fitted effect of over 60% in size; settings: P. falciparum in erythrocytes, SYBR Green DNA, 72 h; series mostly up to 28.7 µM
Results filed as inconclusive are left out. Activity calls are given as the source filed them. Calls come from the whole dose curve; as a rule, active = well fitted inhibition curve with a large enough effect; inconclusive = small, poorly fitted or top-dose-only effect; inactive = flat fitted curve, though single readings scatter.
Use one of these outcomes when replying: active, inactive

Solved entries (count: 10):
compound | category
ClC=C(Cl)Cl | inactive
O=C1CC[C@@]2(O)C3Cc4ccc(O)c5c4C2(CCN3CC2CC2)[C@H]1O5 (stereo not given in full) | inactive
C=CCN(C1=NCCN1)c1c(Cl)cccc1Cl | inactive
N#CC(C#N)=Cc1cc(O)c(O)c(O)c1 | active
[O]=[Cd] | inactive
ClC1C(Cl)C(Cl)C(Cl)C(Cl)C1Cl (stereo not given) | inactive
CC(C)Nc1ccc(Nc2ccccc2)cc1 | active
CCC1(C)CC(=O)NC(=O)C1 | inactive
c1ccc2sc(SNC3CCCCC3)nc2c1 | inactive
Clc1ccc(Cl)cc1 | inactive

Which outcome was entered for the compound CCCN1CCCC2Cc3[nH]ncc3CC21 (stereo not given) in this test?
inactive

Which outcome was entered for the compound O=[N+]([O-])c1ccc(F)c([N+](=O)[O-])c1 in this test?
inactive

Which outcome was entered for the compound CCC1(CC)C(=O)NC(=O)N(C)C1=O in this test?
inactive

Which outcome was entered for the compound C[N+]1(C)CCCCC1COC(=O)C(O)(c1ccccc1)c1ccccc1 (stereo not given) in this test?
inactive

Which outcome was entered for the compound CN1C2CCC1CC(OC(c1ccccc1)c1ccc(Cl)cc1)C2 (stereo not given) in this test?
active

* * *

system: 7G8; test: qHTS profiling for inhibitors of Plasmodium falciparum proliferation (AID 504749); also: nearly all actives have a fitted effect of over 60% in size; details: P. falciparum in erythrocytes, SYBR Green DNA, 72 h; series mostly up to 28.7 µM
Inconclusive results are not listed. Active and inactive are the calls of the source. Calls come from the whole dose curve; as a rule, active = well fitted inhibition curve with a large enough effect; inconclusive = small, poorly fitted or top-dose-only effect; inactive = flat fitted curve, though single readings scatter.
Use one of these outcomes when replying: active, inactive

compound | category
C[N+]1(C)CCCCC1COC(=O)C(O)(c1ccccc1)c1ccccc1 (configuration not stated) | inactive

Which outcome was entered for the compound Cc1sc2ccccc2c1CC1=NCCN1 in this test?
active

Which outcome was entered for the compound CCCCCl in this test?
inactive

Which outcome was entered for the compound [N-]=[N+]=CC(=O)OCC(N)C(=O)O (configuration not stated) in this test?
inactive

Which outcome was entered for the compound C[C@H]1CCC[C@H](O)CCCCCc2cc(O)cc(O)c2C(=O)O1 in this test?
active

Which outcome was entered for the compound COC1=CC=C2[C@H]3Cc4ccc(OC)c5c4[C@@]2(CCN3C)[C@H]1O5 in this test?
inactive

Which outcome was entered for the compound CCC(C)(S(=O)(=O)CC)S(=O)(=O)CC in this test?
inactive

* * *

tested on: CP262; assay: qHTS profiling for inhibitors of Plasmodium falciparum proliferation (AID 504749); also: nearly all actives have a fitted effect of over 60% in size; conditions: P. falciparum in erythrocytes, SYBR Green DNA, 72 h; series mostly up to 28.7 µM
Records with an inconclusive call do not appear. Calls of active or inactive are those of the source. The call rests on the fitted dose curve; in most records, active means well fitted inhibition curve with a large enough effect; inconclusive means small, poorly fitted or top-dose-only effect; inactive means flat fitted curve, though single readings scatter.
Use one of these outcomes when replying: active, inactive

compound | measurement target | category
O=C(OCCN1CCCCC1)C(O)(c1ccccc1)c1ccccc1 | CP262 | inactive

Which outcome was entered for the compound Clc1ccc(Cl)cc1 in this test?
inactive

Which outcome was entered for the compound O=C/C=C/c1ccccc1 in this test?
inactive

* * *

target: Calcium and integrin-binding protein 1 (Homo sapiens) (UniProt Q99828); experiment: Primary qHTS for Identification of Calcium Integrin Binding Protein 1 (CIB1) Competitor (AID 1508620); details: CIB1-GST / FITC-alphaIIb peptide fluorescence polarization; series mostly up to 114 µM;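 also: GST tagged CIB1 binding a fluorescein labelled alphaIIb integrin peptide tracer; top concentration of the series differs between compounds; % is scaled to controls: 0 for no effect and ±100 for the full control effect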
Sequence (Q99828 whole entry, looked up): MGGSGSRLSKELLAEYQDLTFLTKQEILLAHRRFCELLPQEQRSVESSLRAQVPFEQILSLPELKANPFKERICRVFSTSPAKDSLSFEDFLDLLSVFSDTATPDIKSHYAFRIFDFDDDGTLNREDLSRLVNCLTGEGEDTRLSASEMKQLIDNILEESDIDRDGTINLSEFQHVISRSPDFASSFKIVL
Records with an inconclusive call do not appear. Activity calls are given as the source filed them. The call rests on the fitted dose curve; in most records, active means well fitted inhibition curve with a large enough effect; inconclusive means small, poorly fitted or top-dose-only effect; inactive means flat fitted curve, though single readings scatter.
metric name: activity change, negative = inhibition

compound | metric name | observed value
C=C1[C@@H]2CC[C@@]3(C)[C@H](c4ccoc4)OC(=O)C[C@]13O[C@H]1CC(=O)C(C)(C)[C@H](C(OC(C)=O)C(=O)OC)[C@]12C (stereo partly drawn) | activity change, negative = inhibition | inactive
COC1CC(OC2CCC3(C=O)C(CCC4C3CCC3(C)C(C5=CC(=O)OC5)CCC43O)C2)OC(C)C1OC1OC(CO)C(O)C(O)C1O (stereo not drawn) | activity change, negative = inhibition | inactive
Clc1ccc(OCC2=NCCN2)cc1Cl | activity change, negative = inhibition | inactive

* * *

target: Thioredoxin reductase 1, cytoplasmic (Rattus norvegicus); test: qHTS Assay for Substrates of Mammalian Selenoprotein Thioredoxin Reductase 1 (TrxR1) (AID 488772); conditions: purified TrxR1, NADPH consumption substrate assay; series mostly up to 57.1 µM;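 also: NADPH fluorescence in the first read after selenite addition and not the 8 min delta; 0% is about no effect; a drop in NADPH fluorescence below the no-compound background marks a TrxR1 substrate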
Records with an inconclusive call do not appear. Activity calls are given as the source filed them. The call rests on the fitted dose curve; in most records, active means well fitted curve in the direction sought with a large enough effect; inconclusive means small, poorly fitted or top-dose-only effect, or another doubt; inactive means no such curve, though single readings can be large or run the other way.
metric name: outcome

molecule | observed value
CC(C)(O)[C@@H]1C2OC(=O)[C@@H]1[C@]1(O)C[C@H]3O[C@]34C(=O)O[C@H]2[C@]14C (tested in a mixture with another compound) | inactive
CC(=O)OCC1=C(C(=O)O)N2C(=O)[C@@H](NC(=O)CCC[C@@H](N)C(=O)O)[C@H]2SC1 | inactive
N[C@@H](Cn1ccc(=O)[nH]c1=O)C(=O)O | inactive

* * *

target: Glucocorticoid receptor (Homo sapiens); assay: qHTS assay for small molecule agonists of glucocorticoid receptor signaling (AID 588532); conditions: HeLa MMTV-bla, beta-lactamase ratio, agonist, 18 h; stronger effect = higher value; percent of dexamethasone control, DMSO zero;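 also: 100% = dexamethasone at 0.1 µM and 0% = DMSO only wells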
Results filed as inconclusive are left out.
metric name: activation (%)
One number for each entry, in %.

Dear colleague, could you please provide activation for the compounds listed below?
1. O=CC=O
2. ClCC1CO1 (stereo unspecified)
3. COCC(C)N(C(=O)CCl)c1c(C)csc1C (stereo unspecified)
4. O=C(NCNC(=O)NC1C(=O)NC(=O)N1CO)NC1C(=O)NC(=O)N1CO (stereo unspecified)
5. COC1=CC(=O)O[C@@H](/C=C/c2ccccc2)C1
6. NNC(N)=O
7. C[C@H]1CC[C@@H]2[C@@H](C)[C@H]3[C@H](C[C@H]4[C@@H]5CC=C6CC(O[C@@H]7O[C@H](CO)[C@H](O)[C@H](O[C@@H]8O[C@H](CO)[C@@H](O)[C@H](O)[C@H]8O)[C@H]7O[C@H]7O[C@@H](C)[C@H](O)[C@@H](O)[C@H]7O)CC[C@]6(C)[C@H]5CC[C@]34C)N2C1 (stereo partly specified)
8. O=C1CCO1

1. -1.86
2. -9.3
3. -2.08
4. -2.2
5. -2.27
6. -1.3
7. -7.38
8. -0.359

Dear colleague, could you please provide activation for the compounds listed below?
1. C[C@H]1CCC[C@H](O)CCCCCc2cc(O)cc(O)c2C(=O)O1
2. CC(C)CCON=O
3. N#CN

9.28
-2.48
-6.37
